target: OGA (S400 O-GLCNAC), HEK-293T cells transfected with Tau-V5 (Homo sapiens (Human)); experiment: Cellular OGA-Tau MSD Assay; format: cell-based; details: HEK-293T cells, Tau-S400-GlcNAc MSD readout
Sequence (O60502 whole entry): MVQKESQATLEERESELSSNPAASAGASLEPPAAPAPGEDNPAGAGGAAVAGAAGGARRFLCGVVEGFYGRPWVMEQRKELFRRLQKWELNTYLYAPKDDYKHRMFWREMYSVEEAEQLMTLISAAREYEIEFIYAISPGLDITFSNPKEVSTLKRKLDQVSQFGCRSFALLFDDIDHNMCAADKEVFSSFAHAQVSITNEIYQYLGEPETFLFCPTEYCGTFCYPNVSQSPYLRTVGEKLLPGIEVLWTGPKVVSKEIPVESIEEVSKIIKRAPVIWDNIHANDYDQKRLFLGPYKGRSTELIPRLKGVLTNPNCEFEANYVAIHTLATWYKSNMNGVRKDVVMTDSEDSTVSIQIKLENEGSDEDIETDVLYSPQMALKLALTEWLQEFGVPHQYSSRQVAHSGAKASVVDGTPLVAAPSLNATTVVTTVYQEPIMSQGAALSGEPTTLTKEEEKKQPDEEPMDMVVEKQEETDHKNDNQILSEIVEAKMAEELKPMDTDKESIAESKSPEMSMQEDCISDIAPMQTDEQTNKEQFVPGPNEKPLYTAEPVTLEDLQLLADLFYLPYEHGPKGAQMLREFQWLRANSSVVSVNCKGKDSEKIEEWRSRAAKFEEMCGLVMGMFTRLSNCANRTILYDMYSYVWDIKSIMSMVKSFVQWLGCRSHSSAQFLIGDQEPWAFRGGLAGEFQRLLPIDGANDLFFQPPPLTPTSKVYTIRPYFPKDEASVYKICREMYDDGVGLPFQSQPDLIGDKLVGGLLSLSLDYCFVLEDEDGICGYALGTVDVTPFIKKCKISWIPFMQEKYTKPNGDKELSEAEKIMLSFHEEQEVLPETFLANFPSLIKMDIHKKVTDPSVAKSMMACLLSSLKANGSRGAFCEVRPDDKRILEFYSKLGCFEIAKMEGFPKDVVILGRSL
quantity measured: pIC50
In textbook form, pIC50 equals minus log to base ten of the concentration in mol/L.

Illustrative cases are given below, each with its answer.
CC(=O)Nc1ncc(CN2C[C@@H](Oc3cc(C)nc(C)c3)CC[C@@H]2C)s1: 8.40
COc1ccc(O[C@@H]2C[C@H](C)N(Cc3sc(NC(C)=O)nc3F)C2)cn1: 8.70
CC(=O)Nc1ncc(CN2CCC[C@@H](Oc3ccc(F)cn3)C2)s1: 7.42

Returns the measured pIC50 for the input compound. Input: CC(=O)Nc1nc(F)c(CN2C[C@H](Oc3cc(F)c(F)cn3)C[C@@H]2C)s1
8.70

Moving on to COc1cncc(O[C@@H]2C[C@H](C)N(Cc3cnc(NC(C)=O)s3)C2)n1
8.52

Now give it for CCC(=O)Nc1nc(F)c(CN2CC[C@@H](Oc3cc(OC)ncn3)C2)s1 too.
6.02

Try this compound too: COc1cc(O[C@@H]2CC[C@H](C)N(Cc3sc(NC(C)=O)nc3F)C2)ncn1
8.70
